Compiled notes: published Ki values involving UniProt Q969S8.
Target: UniProt Q969S8
Sequence (Q969S8 whole entry): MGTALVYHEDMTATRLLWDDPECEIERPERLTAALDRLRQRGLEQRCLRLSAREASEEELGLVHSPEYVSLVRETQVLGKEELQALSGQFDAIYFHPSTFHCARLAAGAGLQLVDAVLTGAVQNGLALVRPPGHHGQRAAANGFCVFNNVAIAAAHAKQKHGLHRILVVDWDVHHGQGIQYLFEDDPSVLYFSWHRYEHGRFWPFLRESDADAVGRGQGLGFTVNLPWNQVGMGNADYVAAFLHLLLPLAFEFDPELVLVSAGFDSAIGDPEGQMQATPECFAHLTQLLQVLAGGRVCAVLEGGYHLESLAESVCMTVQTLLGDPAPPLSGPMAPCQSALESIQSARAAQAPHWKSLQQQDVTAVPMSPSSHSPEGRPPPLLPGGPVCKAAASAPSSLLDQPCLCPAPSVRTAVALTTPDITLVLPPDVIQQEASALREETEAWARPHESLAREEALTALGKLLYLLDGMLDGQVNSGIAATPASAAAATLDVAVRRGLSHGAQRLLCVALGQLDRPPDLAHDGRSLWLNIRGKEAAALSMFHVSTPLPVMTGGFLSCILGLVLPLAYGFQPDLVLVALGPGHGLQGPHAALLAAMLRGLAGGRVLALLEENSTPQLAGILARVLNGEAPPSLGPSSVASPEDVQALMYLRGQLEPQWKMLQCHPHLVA
Experimental Endpoint: Ki (nM)

Please review the entries below; each comes with its answer.
| Molecular String | Ki [nM] |
| --- | --- |
| CC/C=C\CCc1nc2cc(/C=C/C(=O)NO)ccc2n1CCNCC | 18 |
| CCCCCc1nc2cc(/C=C/C(=O)NO)ccc2n1CCNC(C)C | 19 |

A: O=C(/C=C/c1ccc2c(c1)nc(CCc1ccccc1)n2CCN1CCCCC1)NO
B: Cn1cc(CNCC2CCN(c3ncc(C(=O)NO)cn3)CC2)c2ccccc21
C: O=C(CCCCCNC(=O)NC(=O)c1ccc(Br)cc1)NO
Prompt: Ordering: ascending Ki. Please reply with the labels ordered as requested. Many thanks.
Completion: B, C, A
(B: 0.05 nM, C: 9 nM, A: 23 nM)
